- SYSTEM_NAME: Serotonin 1 receptors; 5-HT1B & 5-HT1D (Homo sapiens) (UniProt P28222+P28221)
- TEST: Binding Selectivity was determined [Selectivity = Ki against h5-HT1B receptor / Ki against h5-HT1D receptor]
- Format: protein assay

[
  {
    "SMILES_REPRESENTATION": "Brc1ccc(CC2=NCCN2)cc1",
    "SYSTEM_NAME": "Serotonin 1 receptors; 5-HT1B & 5-HT1D (Homo sapiens) (UniProt P28222+P28221)",
    "Selectivity": "> 2"
  },
  {
    "SMILES_REPRESENTATION": "Oc1cccc(CC2=NCCN2)c1",
    "SYSTEM_NAME": "Serotonin 1 receptors; 5-HT1B & 5-HT1D (Homo sapiens) (UniProt P28222+P28221)",
    "Selectivity": "< 1"
  },
  {
    "SMILES_REPRESENTATION": "CCCCc1ccc(CC2=NCCN2)cc1",
    "SYSTEM_NAME": "Serotonin 1 receptors; 5-HT1B & 5-HT1D (Homo sapiens) (UniProt P28222+P28221)",
    "Selectivity": "> 4"
  },
  {
    "SMILES_REPRESENTATION": "CCCc1ccc(CC2=NCCN2)cc1",
    "SYSTEM_NAME": "Serotonin 1 receptors; 5-HT1B & 5-HT1D (Homo sapiens) (UniProt P28222+P28221)",
    "Selectivity": "> 4"
  },
  {
    "SMILES_REPRESENTATION": "Cc1cccc(C)c1CC1=NCCN1",
    "SYSTEM_NAME": "Serotonin 1 receptors; 5-HT1B & 5-HT1D (Homo sapiens) (UniProt P28222+P28221)",
    "Selectivity": "> 4"
  }
]

----------
- SYSTEM_NAME: 5-hydroxytryptamine receptor 1D (Homo sapiens, UniProt P28221)
- Sequence (P28221 whole entry): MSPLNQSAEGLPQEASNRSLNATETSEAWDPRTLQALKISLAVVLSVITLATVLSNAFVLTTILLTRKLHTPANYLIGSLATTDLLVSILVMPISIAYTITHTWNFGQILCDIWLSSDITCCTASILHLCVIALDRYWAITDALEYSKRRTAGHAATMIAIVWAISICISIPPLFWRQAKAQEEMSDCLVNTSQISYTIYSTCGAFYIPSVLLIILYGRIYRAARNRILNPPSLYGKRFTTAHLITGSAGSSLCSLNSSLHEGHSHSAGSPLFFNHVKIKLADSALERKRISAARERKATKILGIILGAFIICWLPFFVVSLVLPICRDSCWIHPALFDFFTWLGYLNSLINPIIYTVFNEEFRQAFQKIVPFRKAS
- TEST: Adenyl cyclase activity was expressed as percent forskolin response against 5-hydroxytryptamine 1D receptor at concentration 1 uM
- Format: functional
Collected Response values appear next to each entry.

[
  {
    "SMILES_REPRESENTATION": "CC(C)(C)c1ccc(CC2=NCCN2)cc1",
    "Response": "69%"
  },
  {
    "SMILES_REPRESENTATION": "Cc1cc(C)c(CC2=NCCN2)c(C)c1",
    "Response": "23%"
  },
  {
    "SMILES_REPRESENTATION": "Cc1cc(C(C)(C)C)cc(C)c1CC1=NCCN1",
    "Response": "38%"
  },
  {
    "SMILES_REPRESENTATION": "Cc1cc(C(C)(C)C)c(O)c(C)c1CC1=NCCN1",
    "Response": "40%"
  }
]

----------
The listing below reports Ki for molecules tested on 5-hydroxytryptamine receptor 1B (Homo sapiens).
Sequence (P28222 whole entry): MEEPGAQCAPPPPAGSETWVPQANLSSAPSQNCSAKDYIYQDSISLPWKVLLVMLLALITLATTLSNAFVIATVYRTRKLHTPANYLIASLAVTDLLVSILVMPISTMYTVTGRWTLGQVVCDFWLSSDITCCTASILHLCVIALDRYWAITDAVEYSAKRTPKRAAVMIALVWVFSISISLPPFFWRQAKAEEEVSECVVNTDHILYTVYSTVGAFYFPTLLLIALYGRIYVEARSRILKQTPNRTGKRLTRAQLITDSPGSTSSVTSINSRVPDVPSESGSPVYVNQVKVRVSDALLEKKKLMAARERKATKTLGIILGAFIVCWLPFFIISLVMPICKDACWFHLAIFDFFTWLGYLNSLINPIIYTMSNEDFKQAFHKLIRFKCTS

[
  {
    "SMILES_REPRESENTATION": "Nc1ccc(CC2=NCCN2)cc1",
    "Ki": "> 10 µM"
  },
  {
    "SMILES_REPRESENTATION": "CC(C)(C)c1ccc(CC2=NCCN2)cc1",
    "Ki": "6.83 µM"
  },
  {
    "SMILES_REPRESENTATION": "Cc1cc(C(C)(C)C)c(O)c(C)c1CC1=NCCN1",
    "Ki": "0.0003 µM"
  },
  {
    "SMILES_REPRESENTATION": "CCc1ccc(CC2=NCCN2)cc1",
    "Ki": "> 10 µM"
  },
  {
    "SMILES_REPRESENTATION": "CNCCc1c(C)cc(C(C)(C)C)cc1C",
    "Ki": "> 10 µM"
  },
  {
    "SMILES_REPRESENTATION": "c1ccc(-c2ccc(CC3=NCCN3)cc2)cc1",
    "Ki": "> 10 µM"
  },
  {
    "SMILES_REPRESENTATION": "Cc1cc(C(C)(C)C)cc(C)c1CC1=NCCN1C",
    "Ki": "> 5 µM"
  },
  {
    "SMILES_REPRESENTATION": "Brc1ccc(CC2=NCCN2)cc1",
    "Ki": "> 10 µM"
  }
]
